# Test system: HEK-293T
# Assay: Multiplex assay against HEK293T
# Format: toxicity, cell-based
# Measurement Context: human, 12 h, 10 µM, compound concentration 10 uM, replicate 2
Quantity Name: Population Pyknosed Nuclei (%)
Form entry: value (%) — number only.

Item COc1cc(Nc2ncc3c(n2)-c2ccc(Cl)cc2C(c2c(F)cccc2OC)=NC3)ccc1C(=O)O [ALISERTIB] with HEK-293T - Population Pyknosed Nuclei (%)?
17

Next:
Item "O=C(Nc1cc(-c2ccccc2)nn1-c1ccccc1F)c1ccc([N+](=O)[O-])cc1" with HEK-293T - Population Pyknosed Nuclei (%)?
20

Item Cc1cc(-c2ccc3c(c2)CC[C@H]3N2CC3(CCN(C(=O)Cc4cn5cc(C)sc5n4)CC3)C2)ncn1 [PF-5190457] with HEK-293T - Population Pyknosed Nuclei (%)?
16

Item "Cn1cc(C(=O)OCC2CCN(CCNS(C)(=O)=O)CC2)c2ccccc21" with HEK-293T - Population Pyknosed Nuclei (%)?
18

Item "CC(C)(O)C(=O)N1CCN(c2ccc(C(F)(F)F)c(C3=C(c4c[nH]c5ccccc45)C(=O)NC3=O)c2)CC1" with HEK-293T - Population Pyknosed Nuclei (%)?
21

Item O=c1ccc2ccc(OCCCCN3CCN(c4cccc5sccc45)CC3)cc2[nH]1 [BREXPIPRAZOLE] with HEK-293T - Population Pyknosed Nuclei (%)?
23

Item "CC(F)(F)CN1CCOc2c(nn(-c3ccccc3Cl)c2-c2ccc(Cl)cc2)C1=O" with HEK-293T - Population Pyknosed Nuclei (%)?
18

Item "Cc1nn(C)c2nc(NNC(=O)Nc3cc(Cl)nc(Cl)c3)cc(C(C)C)c12" with HEK-293T - Population Pyknosed Nuclei (%)?
21

Item CN1CCN2c3ccccc3Cc3ccccc3C2C1.Cl (centres undefined) [MIANSERIN HYDROCHLORIDE] with HEK-293T - Population Pyknosed Nuclei (%)?
8
